- TEST: growth inhibitors of tim23-1 mutant yeast, primary screen, luminescence, uHTS (AID 463212);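 further: temperature-sensitive mutant grown at 25 °C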
- CONDITION PARAMETERS: S. cerevisiae tim23-1 growth, BacTiter-Glo luminescence, 24 h; at 20 µM
Out of some 330,000 compounds screened, about 4,400 (1.3%) were called active.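 How the source made its calls: active means growth inhibition of the mutant yeast at or above 50%; inactive means the rest.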 For the sample, actives were picked, then their nearest neighbours and some compounds at random.
Field 'call' accepts T (active), F (inactive)

COMPOUND	ANSWER LABEL
CC(=O)Nc1cccc(C(=O)OCC(=O)c2ccc3c(c2)OCO3)c1	F

Exam item: Dear colleague, could you share the recorded outcome for "CSc1ccc(S(=O)(=O)NC2CCCCC2)cc1" when you have a moment?
Marked response: F

Exam item: Tell me the assay call for "COc1cc(/C=N/NC(=O)CNC(=O)c2ccncc2)ccc1OC(C)=O" please.
Marked response: F

Exam item: Recorded test call requested for O=C(Nc1nnc(C2CC2)s1)C1=NN(C2CCS(=O)(=O)C2)C(=O)CC1 (stereo unspecified)
Marked response: F

Exam item: Assay outcome for "O=C(COC(=O)c1ccc(O)cc1O)c1ccc2c(c1)OCCO2" : what was it?
Marked response: T

Exam item: Identify the outcome logged in this assay for the compound shown: "Cc1ccc(S(=O)(=O)NC2CCCCCC2)cc1"
Marked response: T

Exam item: Call for entry Cc1ccccc1N1CC(C(=O)Nc2ccc3c(c2)OCO3)CC1=O (stereo unspecified) :
Marked response: F

Exam item: Outcome logged for "COc1ccc(CCNC(=O)CN(c2ccccc2)S(C)(=O)=O)cc1" in this assay:
Marked response: F

Exam item: In this assay, the call recorded for "Cc1ccccc1C1=N/C(=C/c2cccnc2)C(=O)O1" was what?
Marked response: T

Exam item: What classification did "COc1ccc(C(=O)NCC(=O)N/N=C/c2ccc([N+](=O)[O-])o2)cc1OC" end up with in this test?
Marked response: T

Exam item: Assay outcome for "O=S(=O)(Nc1ccc(O)c2ccccc12)c1ccc(OC(F)(F)F)cc1" : what was it?
Marked response: F
